# Test system: adult German cockroaches (Blattella germanica)
# assay_overview: Flushing out of German cockroaches from shelter (Experimental Example 8)
# Assay type: in vivo
# experimental_context: 0.7 ml of 0.1% oil spray, 38"
reported_endpoint: Flushing out (%)
Reply numerically in %, unit not repeated.

Value of measured Flushing out for the entry C#CCN1CC(=O)N(COC(=O)C2C(C=C(Cl)Cl)C2(C)C)C1=O (racemic) [Present compound (1) (dl-cis,trans isomer)] : 35

Value of measured Flushing out for the entry `C#CCN1CC(=O)N(COC(=O)[C@@H]2[C@@H](C=C(F)F)C2(C)C)C1=O` : 47

Value of measured Flushing out for the entry `C#CCN1CC(=O)N(COC(=O)C2C(C)(C)C2(C)C)C1=O` : 15

Value of measured Flushing out for the entry CCCN1CC(=O)N(COC(=O)C2C(C=C(Cl)Cl)C2(C)C)C1=O (centres unmarked) : 30

Value of measured Flushing out for the entry CNC(=O)Oc1ccccc1OC(C)C [Propoxur, reference compound] : 0
